tested on: 496974-208-R-J2-PDC complex spheroids, growth % test/control; assay: Anticancer human tumor 496974-208-R-J2-PDC patient-derived pancreatic carcinoma cell line growth inhibition [CLK]; settings: second compound 0.1 µM; first compound 0.1 µM; stronger effect = lower value
quantity name: viability, T/C

Task: Using the record for Nc1ccccc1NC(=O)c1ccc(CNC(=O)OCc2cccnc2)cc1 + CNC(=O)c1ccc(Nc2nc(OC3CCCC3)c3c(-c4ccc5nc(C)oc5c4)c[nH]c3n2)c(OC)c1 , report its viability, T/C.
Result: 72.5%

Task: Cool, now CC(Nc1ccc2c(c1)OCCn1cc(N3C(=O)OCC3C(F)F)nc1-2)C(N)=O (stereo not drawn) + CNC(=O)c1ccc(Nc2nc(OC3CCCC3)c3c(-c4ccc5nc(C)oc5c4)c[nH]c3n2)c(OC)c1
Result: 63.7%

Task: Lookup CCN1CCN(Cc2ccc(Nc3ncc(F)c(-c4cc(F)c5nc(C)n(C(C)C)c5c4)n3)nc2)CC1 + CN1CCN(c2cc(C(=O)Nc3cc4cc(-c5cnn(C)c5)ccc4cn3)ccn2)CC1
Result: 72.9%

* * *

test system: 496974-208-R-J2-PDC complex spheroids, growth % test/control; assay: Anticancer human tumor 496974-208-R-J2-PDC cell line growth inhibition [CLK]; conditions: curve of first compound; second compound 0.1 µM;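 also: spheroids exposed to the drugs for 7 days before readout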
pIC50: −log10 of the molar value.
Record form. Attribute: pIC50. Fill in for each entry.

Task: Reported pIC50, molecule CC(=O)O[C@H]1C(=O)[C@@]2(C)[C@H]([C@H](OC(=O)c3ccccc3)[C@]3(O)C[C@H](OC(=O)[C@H](O)[C@@H](NC(=O)c4ccccc4)c4ccccc4)C(C)=C1C3(C)C)[C@]1(OC(C)=O)CO[C@@H]1C[C@@H]2O + CN1CCN(c2cc(C(=O)Nc3cc4cc(-c5cnn(C)c5)ccc4cn3)ccn2)CC1 : ____
Result: > 7.50

Task: Try CCN1CCN(Cc2ccc(Nc3ncc(F)c(-c4cc(F)c5nc(C)n(C(C)C)c5c4)n3)nc2)CC1 + CN1CCN(c2cc(C(=O)Nc3cc4cc(-c5cnn(C)c5)ccc4cn3)ccn2)CC1 next.
Result: < 6.00

Task: Entry to check: C=CC(=O)Nc1cc(Nc2nccc(-c3cn(C)c4ccccc34)n2)c(OC)cc1N(C)CCN(C)C + CN1CCN(c2cc(C(=O)Nc3cc4cc(-c5cnn(C)c5)ccc4cn3)ccn2)CC1
Result: < 6.52

Task: Cool, now CCc1c2c(nc3ccc(O)cc13)-c1cc3c(c(=O)n1C2)COC(=O)[C@]3(O)CC + CN1CCN(c2cc(C(=O)Nc3cc4cc(-c5cnn(C)c5)ccc4cn3)ccn2)CC1
Result: > 8.50

Task: Next: CCN1CCN(Cc2ccc(Nc3ncc(F)c(-c4cc(F)c5nc(C)n(C(C)C)c5c4)n3)nc2)CC1 + CNC(=O)c1ccc(Nc2nc(OC3CCCC3)c3c(-c4ccc5nc(C)oc5c4)c[nH]c3n2)c(OC)c1
Result: < 6.00

Task: Try this molecule next: C#Cc1c(F)ccc2cc(O)cc(-c3ncc4c(N5CC6CCC(C5)N6)nc(OCC56CCCN5CC(F)C6)nc4c3F)c12 (configuration not stated) + CN1CCN(c2cc(C(=O)Nc3cc4cc(-c5cnn(C)c5)ccc4cn3)ccn2)CC1
Result: > 7.50

Task: What do you get for CC(CO)NC(=O)c1cc(-c2ccc(Cl)cc2)nn(-c2cnn(C)c2)c1=O (configuration not stated) + CN1CCN(c2cc(C(=O)Nc3cc4cc(-c5cnn(C)c5)ccc4cn3)ccn2)CC1 ?
Result: < 5.00

* * *

test system: 496974-208-R-J2-PDC complex spheroids, growth % test/control; test: Anticancer human tumor 496974-208-R-J2-PDC cell line growth inhibition [CLK]; conditions: second compound 3.16 µM; first compound 1 µM; stronger effect = lower value;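 also: spheroids exposed to the drugs for 7 days before readout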;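 as to viability, T/C: 100% = DMSO vehicle control wells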
quantity name: viability, T/C

Task: viability, T/C for CC1COCCN1c1cc(C2(S(C)(=N)=O)CC2)nc(-c2ccnc3[nH]ccc23)n1 (centres undefined) + CNC(=O)c1ccc(Nc2nc(OC3CCCC3)c3c(-c4ccc5nc(C)oc5c4)c[nH]c3n2)c(OC)c1 ?
Result: 52.5%

Task: What would you report for COc1cccc2c1C(=O)c1c(O)c3c(c(O)c1C2=O)CC(O)(C(=O)CO)CC3OC1CC(N)C(O)C(C)O1 (centres undefined) + CNC(=O)c1ccc(Nc2nc(OC3CCCC3)c3c(-c4ccc5nc(C)oc5c4)c[nH]c3n2)c(OC)c1 ?
Result: 1.62%

Task: Also check O=C(c1cc(Cc2n[nH]c(=O)c3ccccc23)ccc1F)N1CCN(C(=O)C2CC2)CC1 + CN1CCN(c2cc(C(=O)Nc3cc4cc(-c5cnn(C)c5)ccc4cn3)ccn2)CC1
Result: 0.48%

Task: Also CC(Nc1ccc2c(c1)OCCn1cc(N3C(=O)OCC3C(F)F)nc1-2)C(N)=O (centres undefined) + CNC(=O)c1ccc(Nc2nc(OC3CCCC3)c3c(-c4ccc5nc(C)oc5c4)c[nH]c3n2)c(OC)c1 , if possible.
Result: 20%

* * *

test system: 496974-208-R-J2-PDC complex spheroids, growth % test/control; experiment: Anticancer human tumor 496974-208-R-J2-PDC cell line growth inhibition [CLK]; settings: second compound 1 µM; first compound 0.316 µM; stronger effect = lower value;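 also: spheroids exposed to the drugs for 7 days before readout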;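 as to viability, T/C: 100% = DMSO vehicle control wells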
quantity name: viability, T/C

Task: Returns the measured viability, T/C for the input compound. Input: CCc1c2c(nc3ccc(O)cc13)-c1cc3c(c(=O)n1C2)COC(=O)[C@]3(O)CC + CN1CCN(c2cc(C(=O)Nc3cc4cc(-c5cnn(C)c5)ccc4cn3)ccn2)CC1
Result: 0.26%

Task: COc1ccc([C@@H](O)c2cc(-c3ncnc4cc(N5CCOCC5)ccc34)c(F)cc2Cl)nn1 + CN1CCN(c2cc(C(=O)Nc3cc4cc(-c5cnn(C)c5)ccc4cn3)ccn2)CC1 , same question.
Result: 2.89%

Task: Queued: CCN1CCN(Cc2ccc(Nc3ncc(F)c(-c4cc(F)c5nc(C)n(C(C)C)c5c4)n3)nc2)CC1 + CN1CCN(c2cc(C(=O)Nc3cc4cc(-c5cnn(C)c5)ccc4cn3)ccn2)CC1
Result: 0.77%

Task: What do you get for COc1cccc2c1C(=O)c1c(O)c3c(c(O)c1C2=O)CC(O)(C(=O)CO)CC3OC1CC(N)C(O)C(C)O1 (centres undefined) + CN1CCN(c2cc(C(=O)Nc3cc4cc(-c5cnn(C)c5)ccc4cn3)ccn2)CC1 ?
Result: 0.75%

* * *

Record form. Attribute: pIC50. Fill in for each entry.
tested on: 496974-208-R-J2-PDC complex spheroids, growth % test/control; experiment: Anticancer human tumor 496974-208-R-J2-PDC cell line growth inhibition [CLK]; details: curve of first compound; second compound 10 µM;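 also: spheroids exposed to the drugs for 7 days before readout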
pIC50: −log10 of the molar value.

Task: # lookup: pIC50 of COc1c(OCCCN2CCOCC2)ccc2c3n(c(=NC(=O)c4cnc(N)nc4)nc12)CCN3 + CN1CCN(c2cc(C(=O)Nc3cc4cc(-c5cnn(C)c5)ccc4cn3)ccn2)CC1
Result: > 8.50

Task: Again, but for CC(Nc1ccc2c(c1)OCCn1cc(N3C(=O)OCC3C(F)F)nc1-2)C(N)=O (stereo not drawn) + CNC(=O)c1ccc(Nc2nc(OC3CCCC3)c3c(-c4ccc5nc(C)oc5c4)c[nH]c3n2)c(OC)c1
Result: > 7.50

Task: What would you report for CCCS(=O)(=O)Nc1ccc(F)c(C(=O)c2c[nH]c3ncc(-c4ccc(Cl)cc4)cc23)c1F + CNC(=O)c1ccc(Nc2nc(OC3CCCC3)c3c(-c4ccc5nc(C)oc5c4)c[nH]c3n2)c(OC)c1 ?
Result: > 7.50

* * *

tested on: 496974-208-R-J2-PDC complex spheroids, growth % test/control; test: Anticancer human tumor 496974-208-R-J2-PDC cell line growth inhibition [CLK]; settings: curve of first compound; second compound 1 µM;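 also: spheroids exposed to the drugs for 7 days before readout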
quantity name: IC50

Task: Report IC50 for NC(=O)C(=Cn1cnc(-c2cc(C(F)(F)F)cc(C(F)(F)F)c2)n1)c1cncnc1 + CN1CCN(c2cc(C(=O)Nc3cc4cc(-c5cnn(C)c5)ccc4cn3)ccn2)CC1 tested on 496974-208-R-J2-PDC complex spheroids, growth % test/control.
Result: < 0.00949 µM

Task: What about this compound? O=C(c1cc(Cc2n[nH]c(=O)c3ccccc23)ccc1F)N1CCN(C(=O)C2CC2)CC1 + CN1CCN(c2cc(C(=O)Nc3cc4cc(-c5cnn(C)c5)ccc4cn3)ccn2)CC1
Result: < 0.0316 µM

Task: What do we get for C#Cc1c(F)ccc2cc(O)cc(-c3ncc4c(N5CC6CCC(C5)N6)nc(OCC56CCCN5CC(F)C6)nc4c3F)c12 (stereo not drawn) + CN1CCN(c2cc(C(=O)Nc3cc4cc(-c5cnn(C)c5)ccc4cn3)ccn2)CC1 ?
Result: < 0.0316 µM

* * *

tested on: 496974-208-R-J2-PDC complex spheroids, growth % test/control; assay: Anticancer human tumor 496974-208-R-J2-PDC cell line growth inhibition [CLK]; conditions: second compound 0.0316 µM; first compound 10 µM; active = viability on the fitted dose curve at most 10% of control; inactive = the rest;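 also: spheroids exposed to the drugs for 7 days before readout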
Respond using exactly one of the listed classes: YES for active, NO for inactive

Task: Fill in: this test's call for Nc1ccn(C2OC(CO)C(O)C2(F)F)c(=O)n1 (centres undefined) + CNC(=O)c1ccc(Nc2nc(OC3CCCC3)c3c(-c4ccc5nc(C)oc5c4)c[nH]c3n2)c(OC)c1 is ___
Result: NO

Task: Try this compound next: C=CC(=O)N1CCN(c2nc(=O)n(-c3c(C)ccnc3C(C)C)c3nc(-c4c(O)cccc4F)c(F)cc23)C(C)C1 (centres undefined) + CNC(=O)c1ccc(Nc2nc(OC3CCCC3)c3c(-c4ccc5nc(C)oc5c4)c[nH]c3n2)c(OC)c1
Result: NO

Task: And what about the compound COc1cccc2c1C(=O)c1c(O)c3c(c(O)c1C2=O)CC(O)(C(=O)CO)CC3OC1CC(N)C(O)C(C)O1 (centres undefined) + CN1CCN(c2cc(C(=O)Nc3cc4cc(-c5cnn(C)c5)ccc4cn3)ccn2)CC1 ?
Result: YES

Task: Next compound up: C#Cc1c(F)ccc2cc(O)cc(-c3ncc4c(N5CC6CCC(C5)N6)nc(OCC56CCCN5CC(F)C6)nc4c3F)c12 (centres undefined) + CNC(=O)c1ccc(Nc2nc(OC3CCCC3)c3c(-c4ccc5nc(C)oc5c4)c[nH]c3n2)c(OC)c1
Result: NO
